test: Selectivity index, ratio of EC50 for cytotoxicity against mouse J774 cells to EC50 for antitrypanosomal activity against bloodstream form Trypanosoma brucei brucei 427; format: toxicity, cell-based; details: read-out: Ratio EC50
observable: selectivity ratio
Write no unit; give the number alone.

Query: Look up selectivity ratio for this compound: CC1CS(=O)(=O)CCN1/N=C/c1ccc([N+](=O)[O-])o1 (stereo not given) [NIFURTIMOX]
Response: 10

Query: Value lookup for selectivity ratio; key = "CCOC(=O)c1csc(NC(=O)c2cc(NC(=O)c3csc(NC(=O)OC(C)(C)C)n3)cn2C)n1"
Response: 5560

====

test: Selectivity index, ratio of EC50 for cytotoxicity against mouse J774 cells to EC50 for antitrypanosomal activity against bloodstream form Trypanosoma brucei brucei 427; type: toxicity, cell-based; details: read-out: Ratio EC50
observable: selectivity ratio

Query: State the recorded selectivity ratio for this entry: "COC(=O)c1nc(NC(=O)c2cc(NC(=O)c3nc(NC(=O)OC(C)(C)C)sc3C(C)C)cn2C)sc1C(C)C"
Response: > 10200

Query: Record request: selectivity ratio value, item "COC(=O)c1nc(NC(=O)c2cc(NC(=O)c3nc(NC(C)=O)sc3C(C)C)cn2C)sc1C(C)C"
Response: > 145

Query: Entry "Cn1cc(NC(=O)c2csc(NC(=O)OC(C)(C)C)n2)cc1C(=O)Nc1nc(C(=O)O)cs1" : reported selectivity ratio = ?
Response: > 35
